- study-target: C-X-C chemokine receptor type 3 (Homo sapiens, UniProt P49682)
- test-method-notes: Displacement of [125I]-CXCL10 from human CXCR3 expressed in HEK293 cells
- Format: cell-based
pKi: −log10 of the molar value.
measurement-kind: pKi

The cases that follow already have their pKi on record.
CC1(C)[C@H]2CC=C(C[N+]3(C)CCc4ccccc4C3)[C@@H]1C2 (stereo partly drawn): 5.60
CN(CC1=CC[C@H]2C[C@@H]1C2(C)C)Cc1ccc(Cl)cc1: 5.60
CN(CC1=CC[C@H]2C[C@@H]1C2(C)C)Cc1ccc(-c2cccc(N)c2)cc1: 5.20

A. CC1(C)[C@H]2CC=C(C[N+](C)(C)Cc3ccc(-c4ccoc4)cc3)[C@@H]1C2
B. CC1(C)[C@H]2CC=C(C[N+](C)(C)Cc3ccc(-c4ccc(Cl)cc4)cc3)[C@@H]1C2
C. CC1(C)[C@@H]2CC[C@@]1(C)C(C[N+](C)(C)Cc1ccc(I)cc1)C2 (mixture of isomers)
D. CN(CC1=CC[C@H]2C[C@@H]1C2(C)C)Cc1ccc(Br)cc1
E. COC(=O)c1cccc(-c2ccc(C[N+](C)(C)CC3=CC[C@H]4C[C@@H]3C4(C)C)cc2)c1
Rank order required: pKi, descending. // list labels; follow requested order
A, B, E, C, D

----------
- study-target: C-X-C chemokine receptor type 3 (Homo sapiens, UniProt P49682)
- test-method-notes: Displacement of [125I]-CXCL10 from human CXCR3 expressed in HEK293 cells
- Type: cell-based
measurement-kind: Ki (nM)

N=C(Nc1ccc(I)cc1)NC1C2CC3CC(C2)CC1C3 (stereo not given): 3980
C[N+](C)(C/C1=C/CCCCCC1)Cc1ccc(I)cc1 (mixture of isomers): 1000

1. CC1(C)[C@H]2CC=C(C[N+](C)(C)Cc3ccc(I)cc3)[C@@H]1C2
2. CCN(CC1=CC[C@H]2C[C@@H]1C2(C)C)Cc1ccc(I)cc1
Please choose the item with the lower Ki value from this pair: 1 and 2 Indicate your choice by writing its label.
1

----------
- study-target: C-X-C chemokine receptor type 3 (Homo sapiens, UniProt P49682)
- Sequence (P49682 whole entry): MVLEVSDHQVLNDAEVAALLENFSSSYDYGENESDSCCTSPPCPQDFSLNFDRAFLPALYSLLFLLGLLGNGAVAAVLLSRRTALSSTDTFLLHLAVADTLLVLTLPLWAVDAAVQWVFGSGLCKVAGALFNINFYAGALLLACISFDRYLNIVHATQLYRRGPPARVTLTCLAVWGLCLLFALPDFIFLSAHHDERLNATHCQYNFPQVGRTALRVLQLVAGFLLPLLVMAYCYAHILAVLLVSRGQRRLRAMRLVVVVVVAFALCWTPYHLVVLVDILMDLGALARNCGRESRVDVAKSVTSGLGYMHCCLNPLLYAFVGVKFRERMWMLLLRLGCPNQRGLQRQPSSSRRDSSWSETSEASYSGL
- test-method-notes: Displacement of [125I]-CXCL10 from human CXCR3 expressed in HEK293 cells
- Type: cell-based
pKi: −log10 of the molar value.
measurement-kind: pKi

The cases that follow already have their pKi on record.
Cc1cccc(-c2ccc(C[N+](C)(C)CC3=CC[C@H]4C[C@@H]3C4(C)C)cc2)c1: 6.40
CC1(C)[C@H]2CC=C(C[N+](C)(C)Cc3ccc(Br)cc3)[C@@H]1C2: 6.50
CN(Cc1ccc(I)cc1)CC1C2CC3CC(C2)CC1C3 (centres undefined): 5.10
CC1(C)[C@H]2CC=C(C[N+](C)(C)Cc3ccc(-c4cccc(C(F)(F)F)c4)cc3)[C@@H]1C2: 6.30
CN(CC1=CC[C@H]2C[C@@H]1C2(C)C)Cc1ccc(-c2ccsc2)cc1: 5.40
CC1(C)[C@H]2CC=C(CN3CCc4ccccc4C3)[C@@H]1C2: 4.90

A. CC1(C)[C@H]2CC=C(C[N+](C)(C)Cc3ccc(-c4cccc(N)c4)cc3)[C@@H]1C2
B. CN(CC1=CC[C@H]2C[C@@H]1C2(C)C)Cc1ccccc1
Please choose the item with the lower pKi value from this pair: A and B Indicate your choice by writing its label.
B
(B: 4.80, A: 5.50)

----------
- study-target: C-X-C chemokine receptor type 3 (Homo sapiens, UniProt P49682)
- test-method-notes: Displacement of [125I]-CXCL10 from human CXCR3 expressed in HEK293 cells
- Type: cell-based
pKi: −log10 of the molar value.
measurement-kind: pKi

The cases that follow already have their pKi on record.
CC1(C)[C@H]2CC=C(C[N+](C)(C)Cc3ccc(-c4ccsc4)cc3)[C@@H]1C2: 6.70
CC1(C)[C@H]2CC=C(C[N+](C)(C)Cc3ccc(-c4ccc(C(F)(F)F)cc4)cc3)[C@@H]1C2: 5.90
CN(CC1=CC[C@H]2C[C@@H]1C2(C)C)Cc1ccc(-c2cccc(F)c2)cc1: 5.60
CC1(C)[C@H]2CC=C(C[N+](C)(C)Cc3ccc(-c4cccc(Cl)c4)cc3)[C@@H]1C2: 6.90
CN(CC1=CC[C@H]2C[C@@H]1C2(C)C)Cc1ccc(-c2ccoc2)cc1: 5.20

1. CC[N+](C)(CC1=CC[C@H]2C[C@@H]1C2(C)C)Cc1ccc(I)cc1 (stereo partly specified)
2. CC1(C)[C@H]2CC=C(C[N+](C)(C)Cc3ccccc3)[C@@H]1C2
3. CC1(C)[C@H]2CC=C(C[N+](C)(C)Cc3ccc(-c4cccc(F)c4)cc3)[C@@H]1C2
4. CC1(C)[C@H]2CC=C(C[N+](C)(C)Cc3ccccc3I)[C@@H]1C2
Order the entries by their reported pKi, beginning at the minimum. // list labels; follow requested order
2, 4, 1, 3

----------
- study-target: C-X-C chemokine receptor type 3 (Homo sapiens)
- test-method-notes: Displacement of [125I]-CXCL10 from human CXCR3 expressed in HEK293 cells
- Assay type: cell-based
measurement-kind: Ki (nM)

The cases that follow already have their Ki on record.
CC1(C)[C@H]2CC=C(C[N+](C)(C)Cc3ccc4oc5ccccc5c4c3)[C@@H]1C2: 501
CC1(C)[C@H]2CC=C(C[N+](C)(C)Cc3cccc(I)c3)[C@@H]1C2: 2000

P. CC1(C)[C@H]2CC=C(C[N+](C)(C)Cc3ccc(-c4cccc([N+](=O)[O-])c4)cc3)[C@@H]1C2
Q. C[N+](C)(CCC12CC3CC(CC(C3)C1)C2)Cc1ccc(I)cc1
R. CC1(C)[C@H]2CC=C(C[N+](C)(C)Cc3ccc(F)cc3)[C@@H]1C2
S. CC1(C)[C@H]2CC=C(C[N+](C)(C)Cc3ccc(Oc4ccccc4)cc3)[C@@H]1C2
T. CN(CC1=CC[C@H]2C[C@@H]1C2(C)C)Cc1ccc(-c2cccc(Cl)c2)cc1
Rank order required: Ki, descending. // list labels; follow requested order
T, S, R, Q, P

----------
- study-target: C-X-C chemokine receptor type 3 (Homo sapiens, UniProt P49682)
- Sequence (P49682 whole entry): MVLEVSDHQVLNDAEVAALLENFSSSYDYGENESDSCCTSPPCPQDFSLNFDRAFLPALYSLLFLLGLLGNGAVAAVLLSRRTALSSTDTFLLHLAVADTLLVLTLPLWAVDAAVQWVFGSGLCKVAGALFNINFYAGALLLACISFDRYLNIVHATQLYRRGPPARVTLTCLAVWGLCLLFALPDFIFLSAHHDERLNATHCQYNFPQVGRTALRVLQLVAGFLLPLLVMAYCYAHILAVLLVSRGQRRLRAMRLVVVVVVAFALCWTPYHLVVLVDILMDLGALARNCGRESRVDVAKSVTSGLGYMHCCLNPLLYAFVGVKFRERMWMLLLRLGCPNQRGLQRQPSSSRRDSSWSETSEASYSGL
- test-method-notes: Displacement of [125I]-CXCL11 from human CXCR3 expressed in HEK293 cells
- Assay type: cell-based
measurement-kind: Ki (µM)

The cases that follow already have their Ki on record.
CC1(C)[C@H]2CC=C(C[N+](C)(C)Cc3ccc(I)cc3)[C@@H]1C2: 0.398
CC1(C)[C@H]2CC=C(C[N+](C)(C)Cc3ccc(-c4cccc(Cl)c4)cc3)[C@@H]1C2: 0.316

1. CC1(C)[C@H]2CC=C(C[N+](C)(C)Cc3ccc(-c4ccsc4)cc3)[C@@H]1C2
2. CC1(C)[C@H]2CC=C(C[N+](C)(C)Cc3ccc(Cl)cc3)[C@@H]1C2
3. N=C(Nc1ccc(I)cc1)NC1C2CC3CC(C2)CC1C3 (stereo not given)
Order the entries by their reported Ki, beginning at the minimum. // list labels; follow requested order
1, 2, 3
(1: 0.316 µM, 2: 0.501 µM, 3: 3.98 µM)

----------
- study-target: C-X-C chemokine receptor type 3 (Homo sapiens)
- test-method-notes: Antagonist activity at human CXCR3 expressed in HEK293T cells co-expressing Galphaqi5 assessed as inhibition of CXCL10-induced [3H]-inositolphosphates levels
- Format: functional, cell-based
- condition-details: HEK-293T
measurement-kind: pKb

CCOc1ccc(-n2c([C@@H](C)N(Cc3cccnc3)C(=O)Cc3ccc(OC(F)(F)F)cc3)nc3ncccc3c2=O)cc1: 8
CC1(C)[C@H]2CC=C(C[N+](C)(C)Cc3ccc(I)cc3)[C@@H]1C2: 6.6
CC1(C)[C@H]2CC=C(C[N+](C)(C)Cc3ccc(-c4ccsc4)cc3)[C@@H]1C2: 6.4
CC1(C)[C@H]2CC=C(C[N+](C)(C)Cc3ccc(-c4cccc(Cl)c4)cc3)[C@@H]1C2: 6.3
CC1(C)[C@H]2CC=C(C[N+](C)(C)Cc3ccc(Cl)cc3)[C@@H]1C2: 6.3

These measurements were taken from ChEMBL document CHEMBL2203150.
